System: HeLa cells
Experiment: Proliferation assay HeLa
Type: cell-based, human
Conditions: Homo sapiens, HeLa, 96 h, 4 days, crystal violet; read-out: Inhibition of HeLa cell proliferation IC50
Outcome Measure: IC50 (nM)
Give bare numbers, in nM.

INSERT INTO measurements (compound, outcome_measure, test_value) VALUES
  ('CS(=O)(Cc1cc2nc(c1)OCCCOc1cc(F)ccc1-c1cc(ncc1F)N2)=NS(=O)(=O)CCN (racemic)', 'IC50', 57),
  ('CN=S(C)(=O)Cc1cc2nc(c1)OCCCOc1cc(F)ccc1-c1cc(ncc1F)N2 (racemic)', 'IC50', 31),
  ('CS(=N)(=O)Cc1cc2nc(c1)OCCOc1cc(F)ccc1-c1cc(ncc1F)N2 (racemic)', 'IC50', 94),
  ('C[S+]([O-])Cc1cc2nc(c1)OCCCOc1cc(F)ccc1-c1cc(ncc1F)N2 (racemic)', 'IC50', 4),
  ('CS(=O)(=O)N=S(C)(=O)Cc1cc2nc(c1)OCCCOc1cc(F)ccc1-c1cc(ncc1F)N2 (racemic)', 'IC50', 17);

Batch of 2 compounds: report IC50 for each.
1. NCCS(=O)(=O)Cc1cc2nc(c1)OCCCOc1cc(F)ccc1-c1cc(ncc1F)N2
2. CS(=O)(Cc1cc2cc(c1)OCCCOc1cc(F)ccc1-c1nc(ncc1F)N2)=NC(=O)C(F)(F)F (racemic)

-- reply
1. 105
2. 10

---

Biological target: CDK2/CycE (Homo sapiens)
Construct: GST; purchased ProQinase GmbH (Freiburg, Germany); host or cells: insect cells (Sf9)
Test: CDK2/CycE high ATP kinase assay (TR-FRET, Method 2b)
Assay type: biochemical
Settings: 2 mM ATP
Outcome Measure: IC50

INSERT INTO results (molecule, outcome_measure, test_value) VALUES
  ('CSCc1cc2nc(c1)OCCOc1cc(F)ccc1-c1cc(ncc1F)N2', 'IC50', '> 20000 nM'),
  ('CS(=N)(=O)Cc1cc2cc(c1)OCCCOc1cc(F)ccc1-c1nc(ncc1F)N2 (racemic)', 'IC50', '237 nM'),
  ('NCCS(=O)(=O)Cc1cc2nc(c1)OCCCOc1cc(F)ccc1-c1cc(ncc1F)N2', 'IC50', '43.7 nM'),
  ('CS(=O)(Cc1cc2nc(c1)OCCCOc1cc(F)ccc1-c1cc(ncc1F)N2)=NC(=O)OCCN (racemic)', 'IC50', '18 nM'),
  ('C[S+]([O-])Cc1cc2nc(c1)OCCCCOc1cc(F)ccc1-c1cc(ncc1F)N2 (racemic)', 'IC50', '113 nM'),
  ('C[S+]([O-])Cc1cc2nc(c1)OCCCOc1cc(F)ccc1-c1cc(ncc1F)N2 (racemic)', 'IC50', '32.1 nM');

# ---- query molecule ----
-- ask Would you mind telling me what IC50 value was observed for CC(=O)N=S(C)(=O)Cc1cc2nc(c1)OCCCOc1cc(F)ccc1-c1cc(ncc1F)N2 (racemic) ?
-- reply 63.2 nM

---

Target: CDK9/CycT1 (Homo sapiens)
Construct: Recombinant full-length His-tagged human CDK9 and CycT1; His; purchased Invitrogen PV4131; host or cells: insect cells
Sequence (P50750 whole entry): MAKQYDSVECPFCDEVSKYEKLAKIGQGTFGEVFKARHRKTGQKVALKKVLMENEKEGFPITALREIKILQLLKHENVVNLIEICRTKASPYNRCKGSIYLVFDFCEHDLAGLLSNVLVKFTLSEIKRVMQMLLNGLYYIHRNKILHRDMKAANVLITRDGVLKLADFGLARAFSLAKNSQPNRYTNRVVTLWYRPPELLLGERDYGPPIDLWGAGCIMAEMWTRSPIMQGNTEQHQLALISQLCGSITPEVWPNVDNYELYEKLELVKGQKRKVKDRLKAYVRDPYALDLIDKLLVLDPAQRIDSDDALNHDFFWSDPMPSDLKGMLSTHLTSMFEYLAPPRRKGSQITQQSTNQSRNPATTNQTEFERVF
Sequence (O60563 whole entry partner): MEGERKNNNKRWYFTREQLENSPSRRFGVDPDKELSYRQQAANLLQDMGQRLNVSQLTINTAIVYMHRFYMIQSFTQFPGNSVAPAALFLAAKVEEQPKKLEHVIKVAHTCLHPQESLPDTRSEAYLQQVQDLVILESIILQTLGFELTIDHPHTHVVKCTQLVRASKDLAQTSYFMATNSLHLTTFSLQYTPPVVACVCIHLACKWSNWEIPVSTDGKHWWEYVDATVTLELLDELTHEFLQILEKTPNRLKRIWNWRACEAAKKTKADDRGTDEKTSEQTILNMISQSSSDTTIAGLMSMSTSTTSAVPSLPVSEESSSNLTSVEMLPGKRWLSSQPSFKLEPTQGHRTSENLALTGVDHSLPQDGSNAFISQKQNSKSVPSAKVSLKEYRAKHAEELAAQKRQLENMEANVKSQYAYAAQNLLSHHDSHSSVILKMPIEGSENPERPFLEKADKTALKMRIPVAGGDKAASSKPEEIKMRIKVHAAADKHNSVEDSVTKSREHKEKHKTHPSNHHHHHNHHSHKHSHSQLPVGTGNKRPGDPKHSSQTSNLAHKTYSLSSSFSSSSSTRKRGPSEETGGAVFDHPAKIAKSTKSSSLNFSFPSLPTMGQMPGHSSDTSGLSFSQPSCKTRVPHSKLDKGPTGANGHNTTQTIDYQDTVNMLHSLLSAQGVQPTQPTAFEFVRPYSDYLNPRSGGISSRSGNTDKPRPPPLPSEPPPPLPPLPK
Experiment: CDK9/CycT1 kinase assay (TR-FRET, Method 1a)
Format: biochemical
Conditions: Method 1a, 10 μM ATP
For each record, write down the corresponding IC50.
One number for each entry, in nM.

Example molecules with recorded IC50:
INSERT INTO results (molecule, test_value) VALUES
  ('CS(=N)(=O)Cc1cc2cc(c1)OCCCCOc1cc(F)ccc1-c1nc(ncc1F)N2 (racemic) [Example 1]', 2.9),
  ('CN=S(C)(=O)Cc1cc2nc(c1)OCCCOc1cc(F)ccc1-c1cc(ncc1F)N2 (racemic) [Example 19]', 5.3),
  ('CS(=O)(Cc1cc2nc(c1)OCCCOc1cc(F)ccc1-c1cc(ncc1F)N2)=NS(=O)(=O)CCN (racemic) [Example 23]', 8.7),
  ('CS(=O)(Cc1cc2nc(c1)OCCCOc1cc(F)ccc1-c1cc(ncc1F)N2)=NS(=O)(=O)CCN.O=C(O)C(F)(F)F (racemic) [Example 24, trifluoroacetate]', 2.2),
  ('CC(=O)N=S(C)(=O)Cc1cc2nc(c1)OCCCOc1cc(F)ccc1-c1cc(ncc1F)N2 (racemic) [Example 18]', 4.9),
  ('NCCS(=O)(=O)Cc1cc2nc(c1)OCCCOc1cc(F)ccc1-c1cc(ncc1F)N2 [Example 26]', 5.9),
  ('CS(=O)(Cc1cc2nc(c1)OCCCOc1cc(F)ccc1-c1cc(ncc1F)N2)=NC(=O)OCCCl (racemic) [Example 21]', 7.3),
  ('C[S+]([O-])Cc1cc2nc(c1)OCCCOc1cc(F)ccc1-c1cc(ncc1F)N2 (racemic) [Example 4]', 2.8);

Batch of 4 molecules: report IC50 for each.
1. CS(=N)(=O)Cc1cc2nc(c1)OCCCOc1cc(F)ccc1-c1cc(ncc1F)N2 (single isomer, unassigned; enantiomer 1) [Example 6]
2. CSCc1cc2cc(c1)OCCCOc1cc(F)ccc1-c1nc(ncc1F)N2 [Example 2]
3. CS(=O)(=O)Cc1cc2nc(c1)OCCCOc1cc(F)ccc1-c1cc(ncc1F)N2 [Example 8]
4. CS(=O)(=O)N=S(C)(=O)Cc1cc2nc(c1)OCCCOc1cc(F)ccc1-c1cc(ncc1F)N2 (racemic) [Example 22]

-- reply
3
7.3
3.8
5.3
